Data origin: ChEMBL document CHEMBL4513216

# TEST_METHOD_NOTES: Toxicity liver stage against HepG2, at 10uM
# Type: cell-based
# Parameters: test concentration 10 uM, cell line HepG2-A16-CD81EGFP
# TEST_CONDITIONS: human, HepG2-A16-CD81EGFP cells; read-out: INHIBITION
Item-by-item account of cytotoxicity at 10 µM

{"COMPOUND": "COc1cc(Cl)c(C)cc1-n1nnc(C(=O)O)c1-c1ccncc1", "cytotoxicity at 10 µM (%)": 4.74}
{"COMPOUND": "CCc1n[nH]c(C(=O)NCCn2ccc(C)n2)c1C", "cytotoxicity at 10 µM (%)": 8.58}
{"COMPOUND": "CC(C)[C@H](NS(C)(=O)=O)C(=O)NCc1cc(-c2ccco2)n[nH]1", "cytotoxicity at 10 µM (%)": -9.13}
{"COMPOUND": "CC1CN(CC(=O)NCCc2ccccc2)CCN1c1nccs1 (stereo unspecified)", "cytotoxicity at 10 µM (%)": -2.79}
{"COMPOUND": "Nc1cc2c(nn1)CCN(C(=O)CC1CCCC1)C2", "cytotoxicity at 10 µM (%)": -6.31}
{"COMPOUND": "O=C(NCCc1coc(-c2ccc(F)cc2)n1)NC1CC1", "cytotoxicity at 10 µM (%)": -3.24}

###

Item-by-item account of cytotoxicity at 10 µM
# TEST_METHOD_NOTES: Toxicity liver stage against HepG2, at 10uM
# Assay type: cell-based
# Design: test concentration 10 uM, cell line HepG2-A16-CD81EGFP
# TEST_CONDITIONS: human, HepG2-A16-CD81EGFP cells; read-out: INHIBITION
PROPERTY: cytotoxicity at 10 µM (%)

{"COMPOUND": "COCCN(Cc1sccc1C)C(=O)C1CCN(C(C)C)CC1", "UNITS_LABEL": "%", "VALUE_REPORTED": -2.72}
{"COMPOUND": "Cc1cnc(C(=O)N2CCCC(Cn3cc(C4CC4)nn3)C2)cn1 (stereo unspecified)", "UNITS_LABEL": "%", "VALUE_REPORTED": -1.15}
{"COMPOUND": "CC(O)c1cccc(N2CCC3(CCC(=O)N(CC(N)=O)C3)CC2)n1 (stereo unspecified)", "UNITS_LABEL": "%", "VALUE_REPORTED": -2.55}
{"COMPOUND": "CC(=O)Nc1ccc(Oc2ccc(CN3CCCC3)cc2F)cc1", "UNITS_LABEL": "%", "VALUE_REPORTED": 0.9}
{"COMPOUND": "Cc1nn(C)c(C)c1S(=O)(=O)NCC1(C(N)=O)CCOCC1", "UNITS_LABEL": "%", "VALUE_REPORTED": 14.9}
{"COMPOUND": "CN(C)Cc1n[nH]c2c1CCN(Cc1cccs1)C2", "UNITS_LABEL": "%", "VALUE_REPORTED": 1.63}
{"COMPOUND": "Cc1noc(C2CCCCN2C(=O)C2CCN(C(C)C)CC2)n1 (stereo unspecified)", "UNITS_LABEL": "%", "VALUE_REPORTED": -4.62}
{"COMPOUND": "O=C(NC[C@H]1OC[C@@H](NC2CCNCC2)[C@@H]1O)C1CCCC1", "UNITS_LABEL": "%", "VALUE_REPORTED": -10.5}
{"COMPOUND": "Cc1ccc(CN2C[C@H](NC(=O)c3nccn3C)[C@H]3OCCC[C@H]32)o1", "UNITS_LABEL": "%", "VALUE_REPORTED": -85}
{"COMPOUND": "CC(C)c1nc(NC(=O)CCCn2cccc2)n(C)n1", "UNITS_LABEL": "%", "VALUE_REPORTED": -7.71}
{"COMPOUND": "CC(C)N(C)Cc1cn2c(n1)CN(C(=O)c1ccc[nH]1)CC2", "UNITS_LABEL": "%", "VALUE_REPORTED": -73.2}

###

Item-by-item account of cytotoxicity at 10 µM
# TEST_METHOD_NOTES: Toxicity liver stage against HepG2, at 10uM
# Format: cell-based
# Design: test concentration 10 uM, cell line HepG2-A16-CD81EGFP
# TEST_CONDITIONS: human, HepG2-A16-CD81EGFP cells; read-out: INHIBITION

{"COMPOUND": "CN(C)c1ccc(NC(=O)N2CCCC2c2ccsc2)cn1 (centres undefined)", "cytotoxicity at 10 µM (%)": -7.81}
{"COMPOUND": "Cc1ccc(-c2ccnc(N[C@H]3COC[C@@H]3N3CCCCC3)n2)c(C)n1", "cytotoxicity at 10 µM (%)": 3.46}
{"COMPOUND": "COCCC(=O)N(C)CCC1=CCN(C)CC1", "cytotoxicity at 10 µM (%)": -6.93}
{"COMPOUND": "Cc1ccc(C)c(C(O)Cn2cc(Cl)c(=O)[nH]c2=O)c1 (centres undefined)", "cytotoxicity at 10 µM (%)": -6.81}
{"COMPOUND": "O=C(c1ccccn1)N1CC[C@@H](N2CCOCC2)[C@@H]1Cc1ccccc1", "cytotoxicity at 10 µM (%)": -77.9}
{"COMPOUND": "CCOCC1CC2(CCN(Cc3ccccn3)CC2)CO1 (centres undefined)", "cytotoxicity at 10 µM (%)": -0.671}
{"COMPOUND": "CCn1cnnc1CCNC(=O)C(C)(C)c1cccc(Cl)c1", "cytotoxicity at 10 µM (%)": 7.76}
{"COMPOUND": "Cc1nc(C)n(CC2CCCN2CCCOc2ccc(C#N)cc2)n1 (centres undefined)", "cytotoxicity at 10 µM (%)": -8.33}
{"COMPOUND": "O=C1CCCN1Cc1nnc2n1CCCN(Cc1ccco1)C2", "cytotoxicity at 10 µM (%)": 3.24}
{"COMPOUND": "CN(Cc1cccc(F)c1)C1CCN(CCc2ccccn2)CC1", "cytotoxicity at 10 µM (%)": -5.38}
{"COMPOUND": "CC(C)c1nccn1C1CCCN(C(=O)C2=NN(C)C(=O)CC2)C1 (centres undefined)", "cytotoxicity at 10 µM (%)": -24.6}
{"COMPOUND": "CC1CCN(Cn2nc(-c3ccc(F)cc3)oc2=O)CC1", "cytotoxicity at 10 µM (%)": -2.55}
{"COMPOUND": "CN(CCc1cccc2ccccc12)Cc1nc(N)nc(N(C)C)n1", "cytotoxicity at 10 µM (%)": 4.19}
{"COMPOUND": "c1ccc(CO[C@@H]2CC[C@H]3[C@H]2OCCN3Cc2ccsc2)nc1", "cytotoxicity at 10 µM (%)": -4.69}
{"COMPOUND": "Cc1ccsc1C(=O)N1Cc2ncn(C)c2C(COCC2CC2)C1 (centres undefined)", "cytotoxicity at 10 µM (%)": 6.76}
{"COMPOUND": "COC(=O)c1sccc1S(=O)(=O)N1CCC(Oc2cccc(C)n2)CC1", "cytotoxicity at 10 µM (%)": 6.48}
{"COMPOUND": "CC(C)C(NC(=O)N1CCN(c2ccc(Cl)cc2)CC1)C(=O)NC1CC1 (centres undefined)", "cytotoxicity at 10 µM (%)": 23.6}
{"COMPOUND": "CN(C)Cc1ccnc(C2CN(CCCc3ccccc3)CCO2)n1 (centres undefined)", "cytotoxicity at 10 µM (%)": -6.36}
{"COMPOUND": "Cn1ccnc1CN1CCCN(C(=O)COC2CCCC2)CC1", "cytotoxicity at 10 µM (%)": -18.1}
{"COMPOUND": "Cc1ccc(CNC(=O)N2CCN(C(C)c3cccnc3)CC2)cn1 (centres undefined)", "cytotoxicity at 10 µM (%)": -2.11}
{"COMPOUND": "COCC(=O)N(C)Cc1cccc(Cl)c1", "cytotoxicity at 10 µM (%)": -10.8}
{"COMPOUND": "CC(C)c1nn(C)c(N(C)C)c1CNC1CCOc2c(F)cccc21 (centres undefined)", "cytotoxicity at 10 µM (%)": -1.99}
{"COMPOUND": "CCn1cc(NC(=O)NCC(c2cccc(F)c2)N(C)C)cn1 (centres undefined)", "cytotoxicity at 10 µM (%)": 0.633}
{"COMPOUND": "O=C(C1CCCO1)N1CCc2onc(-c3ccc(Cl)cc3)c2C1 (centres undefined)", "cytotoxicity at 10 µM (%)": -65.8}

###

# TEST_METHOD_NOTES: Toxicity liver stage against HepG2, at 10uM
# Type: cell-based
# Parameters: test concentration 10 uM, cell line HepG2-A16-CD81EGFP
# TEST_CONDITIONS: human, HepG2-A16-CD81EGFP cells; read-out: INHIBITION

{"COMPOUND": "O=C(CCN1C(=O)CC2(CCCC2)C1=O)NCCc1nccs1", "UNITS_LABEL": "%", "cytotoxicity at 10 µM": 2.86}
{"COMPOUND": "N[C@H]1CN(S(=O)(=O)N2CCCCCC2)C[C@@H]1c1ccccc1", "UNITS_LABEL": "%", "cytotoxicity at 10 µM": 2.14}
{"COMPOUND": "CCCN(C(=O)COC)c1nc2c(s1)CCc1c-2cnn1C", "UNITS_LABEL": "%", "cytotoxicity at 10 µM": 5.15}
{"COMPOUND": "CCC1CCc2c(c3ccccc3[nH]c2=O)O1 (configuration not stated)", "UNITS_LABEL": "%", "cytotoxicity at 10 µM": -1.1}
{"COMPOUND": "CCN1CC[C@@]2(C(=O)N3CCOCC3)CCN(C(=O)NC)CC[C@@H]12", "UNITS_LABEL": "%", "cytotoxicity at 10 µM": -12.7}
{"COMPOUND": "CC(CO)NC(=O)c1ccc2[nH]/c(=N\\S(C)(=O)=O)sc2c1 (configuration not stated)", "UNITS_LABEL": "%", "cytotoxicity at 10 µM": -3.24}
{"COMPOUND": "Cc1ncsc1C(=O)N[C@@H](Cc1ccccc1)C(N)=O", "UNITS_LABEL": "%", "cytotoxicity at 10 µM": -44.9}
{"COMPOUND": "O=C(NCc1ccc(OCC2CC2)nc1)Nc1c(F)cccc1F", "UNITS_LABEL": "%", "cytotoxicity at 10 µM": 9.47}
{"COMPOUND": "CC(C)c1noc(CCCC(=O)Nc2cccc(F)c2)n1", "UNITS_LABEL": "%", "cytotoxicity at 10 µM": 7.01}
{"COMPOUND": "O=C(NCCCc1ccco1)c1ccc(N2CCOCC2)cc1", "UNITS_LABEL": "%", "cytotoxicity at 10 µM": -5.54}
{"COMPOUND": "CN1CCN(C2CCN(c3ccnc(-c4ccccc4)n3)CC2)C1=O", "UNITS_LABEL": "%", "cytotoxicity at 10 µM": 59.7}
{"COMPOUND": "CCc1nc2c(NCC3COc4ccccc4C3)ncnc2o1 (configuration not stated)", "UNITS_LABEL": "%", "cytotoxicity at 10 µM": 10.5}
